Source: ChEMBL document CHEMBL1240301

# tested target: Cyclin-dependent kinase 2 (Homo sapiens, UniProt P24941, F80G)
# experiment description: Inhibition of CDK2 F80G mutant
parameter: pIC50
pIC50 is a log-scale quantity: -log10 of the concentration expressed in molar.

Please fill in: pIC50 reported for CC(C)(C)n1nc(-c2cccc3ccccc23)c2c(N)ncnc21 = 7.82

---

Parameter: pIC50. Scope: all listed entries.
# experiment description: Inhibition of v-Src kinase I338G mutant
pIC50 is a log-scale quantity: -log10 of the concentration expressed in molar.

Please fill in: pIC50 reported for CC(C)(C)n1nc(-c2cccc3ccccc23)c2c(N)ncnc21 = 8.82

***
Please fill in: pIC50 reported for CC(C)(C)n1nc(Cc2cccc3ccccc23)c2c(N)ncnc21 = 8.37
